Molecular target: ABL1 (64-515) (Homo sapiens (Human), UniProt P00519)
Sequence (P00519 64-515): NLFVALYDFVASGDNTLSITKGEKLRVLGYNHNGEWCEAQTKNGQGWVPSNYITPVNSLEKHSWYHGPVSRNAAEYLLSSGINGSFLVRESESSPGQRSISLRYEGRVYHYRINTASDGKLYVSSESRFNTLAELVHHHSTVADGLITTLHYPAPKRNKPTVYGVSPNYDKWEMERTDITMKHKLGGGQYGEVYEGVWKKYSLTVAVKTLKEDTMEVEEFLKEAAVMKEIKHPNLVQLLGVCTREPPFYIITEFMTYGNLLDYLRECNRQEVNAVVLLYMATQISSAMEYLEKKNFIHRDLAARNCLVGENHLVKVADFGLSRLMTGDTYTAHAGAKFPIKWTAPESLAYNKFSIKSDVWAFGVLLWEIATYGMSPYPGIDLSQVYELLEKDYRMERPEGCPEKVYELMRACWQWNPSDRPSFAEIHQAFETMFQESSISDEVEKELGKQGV
Test: Radio ABL1 (64-515) radiometric filter-binding kinase assay
Format: biochemical
Conditions: 20 μM ATP
Hi there, I'd appreciate the recorded pIC50 for every entry that follows.
Scale for pIC50: -log10 of concentration given in mol/L; no unit attached.

pIC50 for ABL1 (64-515) (Homo sapiens (Human), UniProt P00519) with input N[C@@H]1[C@H]2CN(c3ncc(C(=O)Nc4ccc(OC(F)(F)Cl)cc4)cc3-c3ccn[nH]3)C[C@@H]12 [Example 55] equals 9.00

pIC50 for ABL1 (64-515) (Homo sapiens (Human), UniProt P00519) with input O=C(Nc1ccc(OC(F)(F)F)cc1)c1cnc(N2CC[C@@H](O)C2)c(-c2cnoc2)c1 [Example 8] equals 8.05

pIC50 for ABL1 (64-515) (Homo sapiens (Human), UniProt P00519) with input O=C(Nc1ccc(OC(F)(F)Cl)cc1)c1cnc(N2CCC[C@H](O)C2)c(-c2ccn[nH]2)c1 [Example 86] equals 8.40

pIC50 for ABL1 (64-515) (Homo sapiens (Human), UniProt P00519) with input CO[C@H]1CN(c2ccc(C(=O)Nc3ccc(OC(F)(F)F)cc3)cc2-c2cncs2)C[C@@H]1O (relative stereo) [Example 4] equals 8.40

pIC50 for ABL1 (64-515) (Homo sapiens (Human), UniProt P00519) with input O=C(Nc1ccc(OC(F)(F)Cl)cc1)c1cnc(N2CCCC3(CCN3)C2)c(-c2ccn[nH]2)c1 (stereo not shown) [Example 61] equals 8.52

pIC50 for ABL1 (64-515) (Homo sapiens (Human), UniProt P00519) with input N#Cc1ccc(-c2cc(C(=O)Nc3ccc(OC(F)(F)F)cc3)cnc2N2CC[C@@H](O)C2)[nH]1 [Example 30] equals 8.22

pIC50 for ABL1 (64-515) (Homo sapiens (Human), UniProt P00519) with input NC12CC1CN(c1ncc(C(=O)Nc3ccc(OC(F)(F)F)cc3)cc1-c1ccn[nH]1)C2 (stereo not shown) [Example 33] equals 8.52

pIC50 for ABL1 (64-515) (Homo sapiens (Human), UniProt P00519) with input O=C(Nc1ccc(OC(F)(F)F)cc1)c1ccc(N2C[C@H](O)[C@@H](O)C2)c(-c2ccc[nH]2)c1 [Example 28] equals 8.52

pIC50 for ABL1 (64-515) (Homo sapiens (Human), UniProt P00519) with input NC1CN(c2ncc(C(=O)Nc3ccc(OC(F)(F)Cl)cc3)cc2-c2ccn[nH]2)C1 [Example 64] equals 8.40

pIC50 for ABL1 (64-515) (Homo sapiens (Human), UniProt P00519) with input O=C(Nc1ccc(OC(F)(F)Cl)cc1)c1cnc(N2CCC(F)(F)C2)c(-c2ccn[nH]2)c1 [Example 48] equals 8.26

pIC50 for ABL1 (64-515) (Homo sapiens (Human), UniProt P00519) with input O=C(Nc1ccc(OC(F)(F)F)cc1)c1cnc(N2CCOCC2)c(-c2ccn[nH]2)c1 [Example 18] equals 8.30

pIC50 for ABL1 (64-515) (Homo sapiens (Human), UniProt P00519) with input N[C@H]1CN(c2ccc(C(=O)Nc3ccc(OC(F)(F)Cl)cc3)cc2-c2ccn[nH]2)C[C@@H]1O [Example 76] equals 8.52

pIC50 for ABL1 (64-515) (Homo sapiens (Human), UniProt P00519) with input CN(C)C1CN(c2ncc(C(=O)Nc3ccc(OC(F)(F)Cl)cc3)cc2-c2ccn[nH]2)C1 [Example 65] equals 8.25

Data credit: patent US9340537B2
